Each recorded value in this set is attributed to PubChem BioAssay AID1963825.

Experiment: Anticancer human tumor 997537-175-T-J1-PDC patient-derived colon adenocarcinoma cell line growth inhibition [POLQ]
Details: 997537-175-T-J1-PDC complex spheroid viability, combination with POLQ inhibitors; second compound 10 µM; first compound 0.316 µM; stronger effect = lower value

- molecule: "O=C(Nc1ccc(O)c(NS(=O)(=O)c2ccc(F)cc2)c1)c1ccc(-c2ccccc2)cc1 + Cc1cccc(N(C)C(=O)C2C(O)CCN2c2nc(C)cc(C(F)(F)F)c2C#N)c1"
  viability, T/C (%): 108
- molecule: "COc1cc2cc(C(=O)CCC(=O)O)sc2cc1OC + COC1C(OC(N)=O)C(O)C(Oc2ccc3c(O)c(NC(=O)c4ccc(O)c(CC=C(C)C)c4)c(=O)oc3c2C)OC1(C)C"
  viability, T/C (%): 95.5
- molecule: "CNCc1ccc(-c2[nH]c3cc(F)cc4c3c2CCNC4=O)cc1 + COC1C(OC(N)=O)C(O)C(Oc2ccc3c(O)c(NC(=O)c4ccc(O)c(CC=C(C)C)c4)c(=O)oc3c2C)OC1(C)C"
  viability, T/C (%): 105
- molecule: "O=c1[nH]cc(F)c(=O)[nH]1 + Cc1cccc(N(C)C(=O)C2C(O)CCN2c2nc(C)cc(C(F)(F)F)c2C#N)c1"
  viability, T/C (%): 103
- molecule: "CC1COCCN1c1cc(C2(S(C)(=N)=O)CC2)nc(-c2ccnc3[nH]ccc23)n1 (stereo unspecified) + COC1C(OC(N)=O)C(O)C(Oc2ccc3c(O)c(NC(=O)c4ccc(O)c(CC=C(C)C)c4)c(=O)oc3c2C)OC1(C)C"
  viability, T/C (%): 98.9
- molecule: "Nc1ccn(C2OC(CO)C(O)C2(F)F)c(=O)n1 (stereo unspecified) + COC1C(OC(N)=O)C(O)C(Oc2ccc3c(O)c(NC(=O)c4ccc(O)c(CC=C(C)C)c4)c(=O)oc3c2C)OC1(C)C"
  viability, T/C (%): 86.5

----------
Assay: Anticancer human tumor 997537-175-T-J1-PDC cell line growth inhibition [POLQ];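 also: luminescence signal used as a surrogate for viable cells; spheroids exposed to drugs for seven days before readout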
Settings: 997537-175-T-J1-PDC complex spheroid viability, combination with POLQ inhibitors; second compound 0.1 µM; first compound 0.1 µM; stronger effect = lower value

- compound: "COc1cccc2c1C(=O)c1c(O)c3c(c(O)c1C2=O)CC(O)(C(=O)CO)CC3OC1CC(N)C(O)C(C)O1 (configuration not stated) + Cc1cccc(N(C)C(=O)C2C(O)CCN2c2nc(C)cc(C(F)(F)F)c2C#N)c1"
  viability, T/C: "102%"
- compound: "CC(C)n1c(=O)n(C)c2cnc3cc(F)c(-c4ccc(OCCCN5CCCCC5)nc4)cc3c21 + Nc1ccc(C#CCN(C(=O)Cc2ncc(C(F)(F)F)cc2C(F)(F)F)c2ccc(F)cc2)nn1"
  viability, T/C: "111%"
- compound: "O=C(c1cc(Cc2n[nH]c(=O)c3ccccc23)ccc1F)N1CCN(C(=O)C2CC2)CC1 + Nc1ccc(C#CCN(C(=O)Cc2ncc(C(F)(F)F)cc2C(F)(F)F)c2ccc(F)cc2)nn1"
  viability, T/C: "103%"
- compound: "CC1COCCN1c1cc(C2(S(C)(=N)=O)CC2)nc(-c2ccnc3[nH]ccc23)n1 (configuration not stated) + Cc1cccc(N(C)C(=O)C2C(O)CCN2c2nc(C)cc(C(F)(F)F)c2C#N)c1"
  viability, T/C: "96.6%"
- compound: "CNCc1ccc(-c2[nH]c3cc(F)cc4c3c2CCNC4=O)cc1 + Cc1cccc(N(C)C(=O)C2C(O)CCN2c2nc(C)cc(C(F)(F)F)c2C#N)c1"
  viability, T/C: "94.2%"
- compound: "COc1cc2cc(C(=O)CCC(=O)O)sc2cc1OC + Cc1cccc(N(C)C(=O)C2C(O)CCN2c2nc(C)cc(C(F)(F)F)c2C#N)c1"
  viability, T/C: "120%"
- compound: "CCCS(=O)(=O)Nc1ccc(F)c(C(=O)c2c[nH]c3ncc(-c4ccc(Cl)cc4)cc23)c1F + COC1C(OC(N)=O)C(O)C(Oc2ccc3c(O)c(NC(=O)c4ccc(O)c(CC=C(C)C)c4)c(=O)oc3c2C)OC1(C)C"
  viability, T/C: "92.6%"
